# credit: the RNAGym collection of RNA variant scans (doi:10.7554/elife.90254)

B1: OR4K15 (parent)
chain: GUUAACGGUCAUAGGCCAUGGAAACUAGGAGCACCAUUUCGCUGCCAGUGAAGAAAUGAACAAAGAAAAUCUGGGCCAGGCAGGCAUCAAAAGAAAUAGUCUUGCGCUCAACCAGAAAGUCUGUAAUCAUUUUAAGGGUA

# Variants of: B1
# protocol: self-cleavage, relative activity (ratio to wild type); higher = more cleavage; in vitro, sequencing; the parent is a self-cleaving ribozyme
measureName: self-cleavage
Lab note: jot the number down without any unit.

Input line: Recorded self-cleavage of GUUAACGGUCAUAGGCCAUGGAAACUAGGAGCACCAUUUCGCUGCCAGUGAAGAAAUGAACAAAGAAAAUCUGGGCCAGGCAGGCAUCAAAAGAAAUAGUCUUGCGCUCAACCAGAAAGGCUGUAAUCAAUUUAAGGGUA , please.
Output line: 1.2

Input line: Moving on to the next variant: GUUAACUGUCACAGGCCAUGGAAACUAGGAGCACCAUUUCGCUGCCAGUGAAGAAAUGAACAAAGAAAAUCUGGGCCAGGCAGGCAUCAAAAGAAAUAGUCUUGCGCUCAACCAGAAAGUCUGUAAUCAUUUUAAGGGUA
Output line: 0.79

Input line: Moving on to the next variant: GUUAACGGUCAUGGGCCAUGGAAACUAGGAGCACCAUUUCGCUGCCAGUGAAGAAAAGAACAAAGAAAAUCUGGGCCAGGCAGGCAUCAAAAGAAAUAGUCUUGCGCUCAACCAGAAAGUCUGUAAUCAUUUUAAGGGUA
Output line: 1.24

Input line: Moving on to the next variant: GUUAACGGUCAUAGGCCAUGGAAACUAGGAGCACCGUUUCGCUGCCAGUGAAGAAAUGAACAAAGAAAAUCUGGGCCAGGCAGGCAUCAAAAGAAAUAGUCUUGCGCUCAACCAGAAAGUCCGUAAUCAUUUUAAGGGUA
Output line: 1.25

Input line: Moving on to the next variant: GUUAACGGUCAUAGGCCAUGGAAACUAGGAGCACCAUUUCGCUGCCAGUGUAGAAAUGAACAAAGAAAAUCUGGGCCAGGCAGGCAUCAAAAGAAAUAGUCUUGCGCUCAACCAGAAAGUCUGUAAUCAUUUUAAGGGUA
Output line: 1.5

Input line: Moving on to the next variant: GUUAACGGUCAUAGGCCAUGGAAACUAGGAGCACCAUUUCGCUGCCAGAGAAGAAAUGAAUAAAGAAAAUCUGGGCCAGGCAGGCAUCAAAAGAAAUAGUCUUGCGCUCAACCAGAAAGUCUGUAAUCAUUUUAAGGGUA
Output line: 1.38

Input line: Moving on to the next variant: GUUAAUGGUCAUAGGCCAUGGAAACUAGGAGCACCAUUUCGCUGCCUGUGAAGAAAUGAACAAAGAAAAUCUGGGCCAGGCAGGCAUCAAAAGAAAUAGUCUUGCGCUCAACCAGAAAGUCUGUAAUCAUUUUAAGGGUA
Output line: 0.51

Input line: Moving on to the next variant: GUUAACGGUCAUAGGCCAUGGAAACUGGGAGCACCAUUUCGCUGCCAGUGAAGAAAUGAACAAAGAAAAUCCGGGCCAGGCAGGCAUCAAAAGAAAUAGUCUUGCGCUCAACCAGAAAGUCUGUAAUCAUUUUAAGGGUA
Output line: 0.38

Input line: Moving on to the next variant: GUUAACGGUCAUAGGCCAUGGAAACUAGGAGCACCAUUUCGCUGCCAGUGAAGAAAUGAACAAAGAAAAUCUGGGCCAGGCAGGCAUCAAAAGAAAUAGCCUUGCGCUCAACCAGAGAGUCUGUAAUCAUUUUAAGGGUA
Output line: 2.56

Input line: Moving on to the next variant: GUUAACGGUCAUAUGCCAUGGAAACUAGGAGCACCAUUUCGCUGCCAGUGAAGAAAUGAACAAAGGAAAUCUGGGCCAGGCAGGCAUCAAAAGAAAUAGUCUUGCGCUCAACCAGAAAGUCUGUAAUCAUUUUAAGGGUA
Output line: 0.9

Input line: Moving on to the next variant: GUUAACGGUCAUAGGCCAUGGAAACUAGGAGCACCAUUUCGCUGCCAGUGAAGAAAUGAACAAUGAAAAUCUGGGCCAGGCAGGCAUCAAAAGAAAUAGUCUUGCGCUCAACCAGAAGGUCUGUAAUCAUUUUAAGGGUA
Output line: 1.42

Input line: Moving on to the next variant: GUCAACGGUCAUAGGCCAUGGAAACUAGGAGCACCAUUUCGCUGCCAGUGAAGAAAUGAACAAAGAAAAUCUGGGCCAGGCAGGCAUCAAAAGAAAUAGUCUUGCGCUCAACCAGAAAGUCUGUGAUCAUUUUAAGGGUA
Output line: 0.74

Input line: Moving on to the next variant: GUUAACGGUCAUAGGCCAUGGAAACUAGGAGCACCAUUUCGCUGCCAGUGAAGAAAUGUACAAAGAAAAUCUGGGCCAGGCAGGCAUCAAAAGAAAUAGUCUUGCGCUCAACCAGAAAGCCUGUAAUCAUUUUAAGGGUA
Output line: 1.78

Input line: Moving on to the next variant: GUUAACGGUCAUAGGCCAUGGAAACUAGGAGCACCGUUUCGCUGCCAGUGAAGAAAUGAACAAAGAAAAUCUGGGCCAGGCAGGCAUCAAAAGAAAUAGUCUUGCGCUCAACCAGAAAGUCUGUAAUCAUUUUAAGGGUA
Output line: 1.39

Input line: Moving on to the next variant: GUUAACGGUCAUAGGCCAUGGAAACUAGGAGCACCGUUUCGCUGCCAGUGAAGAAAUGAACAAAGAAAAUCUGGGCCAGGCAGGCGUCAAAAGAAAUAGUCUUGCGCUCAACCAGAAAGUCUGUAAUCAUUUUAAGGGUA
Output line: 1.01

Input line: Moving on to the next variant: GUUAACGGUCAUAGGCCAUGGAAACUAGGAGCACCAGUUCGCUGCCAGUGAAGAAAUGAACGAAGAAAAUCUGGGCCAGGCAGGCAUCAAAAGAAAUAGUCUUGCGCUCAACCAGAAAGUCUGUAAUCAUUUUAAGGGUA
Output line: 1.44

Input line: Moving on to the next variant: GUUAACGGUCAUAGGCCAUGGAAACUAGGAGCACCAUCUCGCUGCCAGUGAAGAAAUGAACAAAGAAAAUCUGGGCCAGGCAGGCAUCAAAAGAAUUAGUCUUGCGCUCAACCAGAAAGUCUGUAAUCAUUUUAAGGGUA
Output line: 1.66

Input line: Moving on to the next variant: GUUAACGGUCAUAGGCCAUGGAAACUAGGAGCACCAUUUCGCUGCCAGUGAAGAAAUGAACAAAGAAAAUCUGGGCCAGGCAGGCAUCAAAAGAAAUAGUCUUGCGCUCAACCAGAAAGUCGGUAAUCUUUUUAAGGGUA
Output line: 1.75

Input line: Moving on to the next variant: GUUAACGGUCAUAGGCCAUGGGAACUAGGAGCACCAUUUCGCUGCCAGUGAAGAAAUGUACAAAGAAAAUCUGGGCCAGGCAGGCAUCAAAAGAAAUAGUCUUGCGCUCAACCAGAAAGUCUGUAAUCAUUUUAAGGGUA
Output line: 1.11

Input line: Moving on to the next variant: GUUAACGGUCAUAGGCCAUGGAAACUAGGAGCACCAUUUCGCUGCCAGUGAAGAAAUGAACAAAGAAAAUCCGGGCCAGGCAGGCAUCAAAAGAUAUAGUCUUGCGCUCAACCAGAAAGUCUGUAAUCAUUUUAAGGGUA
Output line: 0.35

Input line: Moving on to the next variant: GUUAACGGUCAUGGGCCAUGGAAACUAGGAGCACCAUUUCGCUGCCAGUGAAGAAAUGAACAAAGAAAAUCUGGGCCAGGCAGGCAUCAAAAGAAAUAGUCUUGCGCUCAACCAGAAAGUCUGUAAUCAUUUUAAGUGUA
Output line: 1.06

Input line: Moving on to the next variant: GUUAACGGUCAUAGGCCAUGGAAACUAGGAGCACCAUUUCGCUGCCAGUGAAGAAAUGAACGAAGAAAAUCUGGGGCAGGCAGGCAUCAAAAGAAAUAGUCUUGCGCUCAACCAGAAAGUCUGUAAUCAUUUUAAGGGUA
Output line: 0.06
